The values you see were collected from ChEMBL document CHEMBL3124800.

- measurement_description: Apparent permeability across apical side to basolateral side in human Caco2 cells
- applied_conditions: Caco-2
measure_name: Papp A→B (nm/s)

• N#Cc1cc(-c2nc(N)[nH]c(=O)c2Cl)ccc1OCC1CCOC1 (stereo not given) = 2

(A) Nc1nc(-c2ccc(OCC3CCOC3)c(C(F)(F)F)c2)c(Cl)c(=O)[nH]1 (stereo not given)
(B) Cc1cc(-c2nc(N)[nH]c(=O)c2Cl)cc(C#N)c1OCC1CCOC1 (stereo not given)
// which entry has the larger Papp A→B value, A or B ? // respond with label for picked entry A
(A: 84 nm/s, B: 21 nm/s)

(I) CC(C)COc1ccc(-c2nc(N)[nH]c(=O)c2C#N)cc1C(F)(F)F
(II) N#Cc1cc(-c2nc(N)[nH]c(=O)c2Cl)ccc1OCCCCO
Field: lower Papp A→B | Options: I / II Respond using the label that marks the chosen record. II
(II: 2 nm/s, I: 17 nm/s)
